These data points were gathered from patent US9518038B2.

- Tested on: human lung cancer cells A549 xenograft
- assay overview: In-vivo growth of A549 xenografts in nude mice
- Set-up: species or system BALB/c nude mice
- condition context: Mus musculus, ip, 60 mg/kg intraperitoneal once a day, vs DMSO solvent control, read-out: Curative effect (inhibition rate %) of tumor weight
measured metric: inhibition in vivo at 60 mg/kg
Form field: result (number plus unit)

# example entries with known answers
compound | measured result
CCNC(=O)CC[C@@H](NC(=O)c1cc2cc(Cl)cc(Cl)c2oc1=O)C(=O)OCC [Compound Ig] | 56.6%
CCNC(=O)CC[C@H](N)C(=O)OCC [Compound IIb, theanine ethyl ester] | 33.3%
CCNC(=O)CCC(NC(=O)c1cc2cc([N+](=O)[O-])ccc2oc1=O)C(=O)OCC (stereo in doubt) [Compound If] | 58.6%
CCNC(=O)CCC(NC(=O)c1cc2cc(F)ccc2oc1=O)C(=O)OCC (stereo in doubt) [Compound Ie] | 55.5%
CCNC(=O)CC[C@H](N)C(=O)OC [Compound IIa, theanine methyl ester] | 29.6%
CCNC(=O)CC[C@@H](NC(=O)c1cc2cc(Cl)ccc2oc1=O)C(=O)OCC [Compound Ic] | 61.6%

Next:
Assign inhibition in vivo at 60 mg/kg to the following record: CCNC(=O)CC[C@@H](NC(=O)c1cc2cc(Br)cc(Br)c2oc1=O)C(=O)OCC [Compound Ih]
53.8%
